assay: Octanol-aqueous phase distribution coefficient, log D of the compound at pH 6; assay type: physicochemical
assay-endpoint: logD
One number for each entry.

Recorded logD, per entry:
CC(C)CCc1cc([N+](=O)[O-])c(O)c([N+](=O)[O-])c1 = 1.92
CC(C)Cc1cc([N+](=O)[O-])c(O)c([N+](=O)[O-])c1 = 1.62
O=[N+]([O-])c1ccc(O)cc1 = 1.96
Cc1cc([N+](=O)[O-])c(O)c([N+](=O)[O-])c1C = 0.74

(Q) # input compound: `CC(C)CCCCCc1cc([N+](=O)[O-])c(O)c([N+](=O)[O-])c1` ; wanted: its logD
(A) 3.42
